FYI, the data here is from patent US7101878B1.

target entity: rat GnRH receptor (Rattus norvegicus)
Sequence (P30969 1-327): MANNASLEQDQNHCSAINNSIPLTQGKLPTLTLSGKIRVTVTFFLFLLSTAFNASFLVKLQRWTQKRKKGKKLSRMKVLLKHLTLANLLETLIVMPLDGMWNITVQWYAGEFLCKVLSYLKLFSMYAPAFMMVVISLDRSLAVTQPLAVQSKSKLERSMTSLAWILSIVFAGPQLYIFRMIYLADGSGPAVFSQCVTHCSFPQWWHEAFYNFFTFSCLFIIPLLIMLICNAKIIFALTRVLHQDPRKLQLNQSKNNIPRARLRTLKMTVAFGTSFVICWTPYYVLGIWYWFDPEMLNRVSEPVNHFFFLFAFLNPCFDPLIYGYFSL
test: Radioligand binding, 125I-GnRH-A, rat pituitary membranes
Parameters: membranes were prepared from rat pituitary; from tissue; host or cells: rat pituitary
experimental setup: read-out: rGnRH IC50
I'd appreciate it if you could supply IC50 values for the items below.
Hey, just the number and the unit after it is fine.

Worked cases, IC50 given:
compound	result
COc1cc(OC)c(NC(=O)c2ccc(Cc3c(OC)cc(C)c(Cl)c3C)o2)c(OC)c1 [Compound 299]	290 nM
Cc1cc2c(cc1Cc1ccc(C(=O)NCc3cccs3)o1)C(C)(C)CCC2(C)C [Compound 44]	510 nM
Cc1cc2c(cc1Cc1ccc(C(=O)NCC3CCC(CNC(=N)N)CC3)o1)C(C)(C)CCC2(C)C (stereo not shown) [Compound 9]	680 nM

Pending compound:
Ask: Which value of IC50 has been reported for Cc1cc2c(cc1Cc1ccc(C(=O)NC[C@H]3CC[C@H](CNC(=N)N)CC3)o1)C(C)(C)CCC2(C)C [Compound 10] in the records?
Reply: 390 nM

====

target entity: human GnRH receptor (Homo sapiens, UniProt P30968)
Construct: expressed in transfected cells; host or cells: HEK 293 (hGnRH-R/293, from Dr. Stuart Sealfon)
Sequence (P30968 1-328): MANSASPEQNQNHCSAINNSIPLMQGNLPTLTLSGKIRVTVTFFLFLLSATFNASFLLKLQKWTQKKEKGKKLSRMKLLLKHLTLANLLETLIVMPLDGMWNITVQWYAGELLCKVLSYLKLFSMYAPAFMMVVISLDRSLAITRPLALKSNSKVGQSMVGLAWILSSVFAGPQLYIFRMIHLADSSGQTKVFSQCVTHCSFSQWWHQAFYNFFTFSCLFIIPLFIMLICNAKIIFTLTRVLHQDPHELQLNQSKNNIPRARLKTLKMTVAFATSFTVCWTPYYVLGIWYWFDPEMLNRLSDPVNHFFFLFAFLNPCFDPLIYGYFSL
test: Radioligand binding, 125I-GnRH-A displacement, membranes of HEK 293 cells with human GnRH receptor
experimental setup: read-out: hGnRH IC50
Provide the recorded IC50 for the entries that follow.
Numbers only, in nM.

Report IC50 for every entry below.
1. COc1cc(OC)c(NC(=O)c2ccc(Cc3cc(C4CCCCC4)ccc3C)o2)c(OC)c1 [Compound 304]
2. Cc1cc2c(cc1Cc1ccc(C(=O)NC3CCC(Nc4nccc(NCC5CCCO5)n4)CC3)o1)C(C)(C)CCC2(C)C (stereo not shown) [Compound 152]

Reply:
1. 303
2. 700

====

test: Metabolism rate, pmol/min/mg at 1 μM, rat female
Type: in vitro ADME
experimental setup: 1 μM compound
Provide the recorded Rat female pmol/min/mg 1 μM for the entries that follow.
Answer format: value, then unit.

Consider the following illustrative entries.
1. COc1cc(OC)c(NC(=O)c2ccc(Cc3cc4c(cc3C)OCCC4(C)C)o2)c(OC)c1 223 pmol/min/mg
2. COc1cccc(OC)c1NC(=O)c1ccc(Cc2c(C)c(C)c(Br)c(C)c2C)o1 173 pmol/min/mg
3. COc1cc(OC)c(NC(=O)c2ccc(Cc3cc4c(cc3C)C(C)(C)CCC4(C)C)o2)c(OC)c1 94 pmol/min/mg

Next compound, Rat female pmol/min/mg 1 μM to be filled in.
Ask: Which value of Rat female pmol/min/mg 1 μM has been reported for COc1cc(C)c(Cl)c(C)c1Cc1ccc(C(=O)Nc2c(OC)cccc2OC)o1 in the records?
Reply: 338 pmol/min/mg

====

target entity: human GnRH receptor (Homo sapiens, UniProt P30968)
Construct: expressed in transfected cells; host or cells: HEK 293 (hGnRH-R/293, from Dr. Stuart Sealfon)
test: Radioligand binding, 125I-GnRH-A displacement, membranes of HEK 293 cells with human GnRH receptor
experimental setup: 1 h, repeat of % Inhib. at 1 uM; read-out: Repeats @ 1 uM hGnRH
Record form. Attribute: inhibition at 1 µM. Fill in for each entry.
One number for each entry, in %.

Known inhibition at 1 µM results, listed for orientation:
molecule	unit label	inhibition at 1 µM
Cc1cc2c(cc1Cc1ccc(C(=O)NCCc3ccccc3Cl)o1)C(C)(C)CCC2(C)C [drawing 1104]	%	63
COc1cc(CCNC(=O)c2ccc(Cc3cc4c(cc3C)C(C)(C)CCC4(C)C)o2)cc(OC)c1O [drawing 1061]	%	49
Cc1cc2c(cc1Cc1ccc(C(=O)N[C@H](CO)c3ccccc3)o1)C(C)(C)CCC2(C)C	%	26

Ask: Observed inhibition at 1 µM on human GnRH receptor (Homo sapiens, UniProt P30968) for Cc1cc2c(cc1Cc1ccc(C(=O)NCC(O)c3ccccc3)o1)C(C)(C)CCC2(C)C (stereo not shown) [drawing 1196] , please.
Reply: 69

====

target entity: mouse GnRH receptor (Mus musculus, UniProt Q01776)
Construct: expressed in transfected cells; host or cells: 293 cells
Sequence (Q01776 whole entry): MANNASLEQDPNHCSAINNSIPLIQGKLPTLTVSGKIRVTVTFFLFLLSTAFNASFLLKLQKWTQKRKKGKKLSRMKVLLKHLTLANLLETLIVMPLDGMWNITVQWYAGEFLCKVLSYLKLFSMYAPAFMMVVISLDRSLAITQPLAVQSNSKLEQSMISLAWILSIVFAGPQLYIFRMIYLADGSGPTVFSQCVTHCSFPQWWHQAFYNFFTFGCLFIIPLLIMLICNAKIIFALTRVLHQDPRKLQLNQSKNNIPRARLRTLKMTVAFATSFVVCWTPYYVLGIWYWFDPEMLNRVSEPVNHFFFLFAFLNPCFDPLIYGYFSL
test: Radioligand binding, 125I-GnRH-A, 293 cells expressing mouse GnRH receptors
experimental setup: 1 h, substrate remaining; 10 uM compound; closer to zero = closer to 100% inhibition; read-out: S%R 10 uM mGnRHR
Rule: remaining activity at 10 µM below 20% gives t, anything at or above gives f.

Some entries whose results are on file:
compound	label
Cc1cc2c(cc1Cc1ccc(C(=O)N(Cc3ccccc3)Cc3ccc(Cl)c(Cl)c3)o1)C(C)(C)CCC2(C)C [Compound 696]	f
Cc1ccc(N2CCN(C(=O)c3ccc(Cc4cc5c(cc4C)C(C)(C)CCC5(C)C)o3)CC2C)cc1 (stereo not drawn) [Compound 702]	f
Cc1cc2c(cc1Cc1ccc(C(=O)NCCc3ccncc3)o1)C(C)(C)CCC2(C)C [Compound 485]	t
Cc1cc2c(cc1Cc1ccc(C(=O)N(CCc3ccccn3)Cc3ccccc3)o1)C(C)(C)CCC2(C)C [Compound 595]	f
Cc1cc2c(cc1Cc1ccc(C(=O)NCCN3CCCCC3)o1)C(C)(C)CCC2(C)C [Compound 488]	t

Ask: Hello, is remaining activity at 10 µM of the following compound strictly smaller than 20%? Cc1cc2c(cc1Cc1ccc(C(=O)NC(CO)CC3CCCCC3)o1)C(C)(C)CCC2(C)C (stereo not drawn) [Compound 558]
Reply: f

Ask: I'd appreciate it if you could check whether Cc1cc2c(cc1Cc1ccc(C(=O)NCC(C)(C)CO)o1)C(C)(C)CCC2(C)C [Compound 601] has remaining activity at 10 µM smaller than 20%.
Reply: t

Ask: hey, is remaining activity at 10 µM for Cc1cc2c(cc1Cc1ccc(C(=O)N3CCC[C@H]3CNc3ccccc3)o1)C(C)(C)CCC2(C)C [Compound 549] lower than 20% or not?
Reply: f

Ask: Lab log: compare recorded remaining activity at 10 µM with 20%; is it strictly lower for Cc1cc2c(cc1Cc1ccc(C(=O)N(Cc3ccco3)C3CCN(Cc4ccccc4)C3)o1)C(C)(C)CCC2(C)C (stereo not drawn) [Compound 681] ?
Reply: t

Ask: Does this compound meet the criterion remaining activity at 10 µM < 20%? CCCN(Cc1ccc([N+](=O)[O-])cc1)C(=O)c1ccc(Cc2cc3c(cc2C)C(C)(C)CCC3(C)C)o1 [Compound 589]
Reply: f

Ask: remaining activity at 10 µM under 20%? Item: Cc1cc2c(cc1Cc1ccc(C(=O)NCc3cccc4c3OC3C=CC=CC43)o1)C(C)(C)CCC2(C)C (stereo not drawn) [Compound 518]
Reply: f

Ask: In plain terms, does Cc1cc2c(cc1Cc1ccc(C(=O)NC(CCCNC(N)N)C(=O)O)o1)C(C)(C)CCC2(C)C (stereo not drawn) [Compound 459] come in under 20% for remaining activity at 10 µM?
Reply: f

Ask: Just wondering, is remaining activity at 10 µM of Cc1cc2c(cc1Cc1ccc(C(=O)NCCCCCCO)o1)C(C)(C)CCC2(C)C [Compound 617] below 20%?
Reply: t

Ask: For Cc1cc2c(cc1Cc1ccc(C(=O)N3CCC(NC(=O)C(F)(F)F)C3)o1)C(C)(C)CCC2(C)C (stereo not drawn) [Compound 661] , is the recorded remaining activity at 10 µM below the cut-off of 20%?
Reply: f

Ask: Decide: remaining activity at 10 µM of Cc1cc2c(cc1Cc1ccc(C(=O)N(Cc3ccc(C(C)C)cc3)Cc3cccnc3)o1)C(C)(C)CCC2(C)C [Compound 547] strictly below 20%?
Reply: f
